assay: growth inhibition of WT strain, primary screen, mitochondrial fusion inhibitor project, WT and mutant strains, chemical genetic (AID 1362); settings: mitochondrial fusion phenotypic screen, mutant strain inhibition; at 10 µM
In all, about 190,000 compounds went through this assay and about 4,000 (2.1%) were called active. This is one part of a sample in which actives are shown more often than they occur.
measurementLabel: inhibition (%)
The reply should contain only the number, in %.

Consider the following illustrative entries.
>>> reportedresult("CN(C)c1ccc(/C=N/Nc2cc(N3CCOCC3)nc(N3CCOCC3)n2)cc1")
-1.62
>>> reportedresult("CC1=NN(c2cccc(Cl)c2)C(=O)C12CC(C)=C(C)CS2 (stereo unspecified)")
49.2
>>> reportedresult("CC(/C=C/c1ccccc1)=N\\NC(=O)C1CC1(C)c1ccccc1 (stereo unspecified)")
59.3
>>> reportedresult("CC(C)C(c1nnnn1C(C)(C)C)N1CCN(Cc2cccnc2)CC1 (stereo unspecified)")
0.92
>>> reportedresult("OCC1(CCc2ccccc2)CCN(Cc2ccc3nsnc3c2)CC1")
25.4

Continue with the next molecule.
Q: Answer with the recorded inhibition for the molecule listed here: CCOc1cccc(OCCCOc2cccc3cccnc23)c1
Ans: 26
